- System: Plasmodium falciparum Sir2 (PF13_0152, Sir2A)
- Assay Notes: pfSir2 binders on small-molecule microarrays, primary screen, biochemical, small-molecule microarray, 635 nm fluorescence (AID 1098);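 also: score merges spot fluorescence intensity with its signal-to-noise ratio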
- Condition Set: small-molecule microarray binding, fluorescence 635 nm; higher = more signal
# reported composite z-score; entries follow
Experimental Readout: composite z-score

compound=[N-]=[N+]=NCc1ccccc1[C@@H]1OC(c2ccc(OCCCO)cc2)=N[C@]1(Cc1ccccc1N=[N+]=[N-])C(=O)NCc1ccccc1 study_target="Plasmodium falciparum Sir2 (PF13_0152, Sir2A)" reading=0.919
compound=C=C(C(=O)CC[C@H](OC(C)=O)c1ccc(OCCO)cc1)C(C)C study_target="Plasmodium falciparum Sir2 (PF13_0152, Sir2A)" reading=-0.478
compound="COC(=O)c1ccc(C(O)C2C=CC3C(=O)N(C)C(=O)C3N2NC(=O)OC(C)(C)C)o1 (centres undefined)" study_target="Plasmodium falciparum Sir2 (PF13_0152, Sir2A)" reading=0.66
compound=Cc1ccc(F)cc1S(=O)(=O)N[C@@H]1CCN(Cc2ccc(-c3ccccc3)cc2)C1 study_target="Plasmodium falciparum Sir2 (PF13_0152, Sir2A)" reading=0.293
compound="CC(C)(C)N1CC=CC23O[C@@H]4C=CCOC(=O)[C@@H]4[C@H]2C(=O)N(CCCCCO)[C@@H]3C1=O (some centres undefined)" study_target="Plasmodium falciparum Sir2 (PF13_0152, Sir2A)" reading=1.12
compound="CCCCC(CC)C(O)C1C=CC2C(=O)N(c3ccccc3)C(=O)C2N1Nc1ccccc1 (centres undefined)" study_target="Plasmodium falciparum Sir2 (PF13_0152, Sir2A)" reading=0.889
compound="CC(c1ccccc1)C(O)C1C=CC2C(=O)NC(=O)C2N1Nc1ccccn1 (centres undefined)" study_target="Plasmodium falciparum Sir2 (PF13_0152, Sir2A)" reading=0.459
compound=C=C(CCCC)C(=O)CC[C@H](OC(=O)c1cccnc1)c1cccc(OCCO)c1 study_target="Plasmodium falciparum Sir2 (PF13_0152, Sir2A)" reading=0.681
compound=CCCNC(=O)[C@@]1(c2ccc([N+](=O)[O-])cc2)CC(=O)N(CC23CC4CC(CC(C4)C2)C3)[C@@H]1c1ccc(CO)cc1 study_target="Plasmodium falciparum Sir2 (PF13_0152, Sir2A)" reading=0.814
compound=CCOC(=O)C[C@H]1[C@H](OC(=O)Cc2ccc3c(c2)OCO3)[C@@H](NC(=O)c2ccc(-c3ccccc3)cc2)c2cc(OCCCO)ccc2N1C(=O)c1ccccc1 study_target="Plasmodium falciparum Sir2 (PF13_0152, Sir2A)" reading=0.377
compound=O=C1O[C@H](c2ccccc2)[C@H](c2ccccc2)N2[C@H]1[C@@H](C(=O)NC[C@H](O)c1ccccc1)[C@]1(C(=O)Nc3ccc(C#CCCO)cc31)[C@H]2c1ccc(O)cc1 study_target="Plasmodium falciparum Sir2 (PF13_0152, Sir2A)" reading=-0.229
compound="O=C1C2C=CC(C(O)c3ccc(-c4ccccc4)s3)N(n3cnnc3)C2C(=O)N1Cc1ccccc1 (centres undefined)" study_target="Plasmodium falciparum Sir2 (PF13_0152, Sir2A)" reading=0.633
compound=COc1ccc([Si](C)(C)[C@@H]2[C@@H](CC(=O)N(CCO)Cc3ccccc3)O[C@]3(C(=O)N(C)c4ccccc43)[C@H]2C)cc1 study_target="Plasmodium falciparum Sir2 (PF13_0152, Sir2A)" reading=1.24
compound=COCCOC(=O)N1C(=O)[C@@]2(c3cc(C#CCC(C(=O)OC)C(=O)OC)ccc31)[C@H](c1ccc(O)cc1)N1[C@H](c3ccccc3)[C@H](c3ccccc3)OC(=O)[C@H]1[C@@H]2C(N)=O study_target="Plasmodium falciparum Sir2 (PF13_0152, Sir2A)" reading=0.224
compound=O=c1cccc(CCc2ccccc2)o1 study_target="Plasmodium falciparum Sir2 (PF13_0152, Sir2A)" reading=0.931
compound=COCCOC(=O)N1C(=O)[C@@]2(c3cc(C#CCNC(N)=O)ccc31)[C@H](c1ccc(OCCO)cc1)N1[C@H](c3ccccc3)[C@H](c3ccccc3)OC(=O)[C@H]1[C@@H]2C(=O)N1CCc2cc(OC)c(OC)cc2C1 study_target="Plasmodium falciparum Sir2 (PF13_0152, Sir2A)" reading=0.719
compound="N#Cc1ccc(NN2C(C(O)C3CCCCC3)C=CC3C(=O)N(c4ccccc4)C(=O)C32)cc1 (centres undefined)" study_target="Plasmodium falciparum Sir2 (PF13_0152, Sir2A)" reading=0.908
compound="CS(=O)(=O)CCOC(=O)C1=CC(c2ccc(CO)cc2)=CC(C2CC2)N(Cc2cc3c(cc2Br)OCO3)C=C1C(=O)OCCS(C)(=O)=O (centres undefined)" study_target="Plasmodium falciparum Sir2 (PF13_0152, Sir2A)" reading=0.848
compound=CC(C)N1C(=O)C[C@@](C(=O)NCc2ccccc2)(c2ccc([N+](=O)[O-])cc2)[C@H]1c1ccc(CO)cc1 study_target="Plasmodium falciparum Sir2 (PF13_0152, Sir2A)" reading=0.142
compound=CCOC(=O)C1=CC[C@@H](c2ccccc2Cl)N(S(=O)(=O)c2ccc(C)cc2)C1 study_target="Plasmodium falciparum Sir2 (PF13_0152, Sir2A)" reading=1.17
compound="COC(=O)c1ccc(C(O)C2C=CC3C(=O)N(c4ccccc4)C(=O)C3N2Nc2ccc(C#N)cc2)o1 (centres undefined)" study_target="Plasmodium falciparum Sir2 (PF13_0152, Sir2A)" reading=0.969
compound="[N-]=[N+]=NCc1ccccc1C[C@]1(C(=O)NCC(O)CO)N=C(c2ccc(OCCCO)cc2)O[C@H]1c1ccccc1N=[N+]=[N-] (some centres undefined)" study_target="Plasmodium falciparum Sir2 (PF13_0152, Sir2A)" reading=0.3
compound=CC(C)C[C@@H]1NC(=O)[C@@H]2C[C@H](C(=O)NCCCCCC[N+](C)(C)C)[C@H](c3ccc(O)cc3)N2C1=O study_target="Plasmodium falciparum Sir2 (PF13_0152, Sir2A)" reading=1.38
compound=Cc1ccc(S[C@]2(C(=O)NC3CC3)CC(=O)N(C3CCCCC3)[C@@H]2c2ccc(CO)cc2I)cc1 study_target="Plasmodium falciparum Sir2 (PF13_0152, Sir2A)" reading=1.19
compound=C=CCOC(=O)[C@@H]1[C@H]2C(=O)O[C@H](c3ccccc3)[C@H](c3ccccc3)N2[C@H](c2ccc(OCCOC(=O)[C@@H]3C[C@@H]4C(=O)N[C@@H](Cc5ccccc5)C(=O)N4[C@@H]3c3cccc(OCCO)c3)cc2)[C@@]12C(=O)Nc1ccc(I)cc12 study_target="Plasmodium falciparum Sir2 (PF13_0152, Sir2A)" reading=1.12
compound="CC(C)N1CC=CC23O[C@@H]4C=CCOC(=O)[C@@H]4[C@H]2C(=O)N(CCO)[C@@H]3C1=O (some centres undefined)" study_target="Plasmodium falciparum Sir2 (PF13_0152, Sir2A)" reading=1.58
compound=O=C(O)[C@@]1(Cc2ccccc2)N=C(c2ccc(OCCCO)cc2)O[C@H]1c1ccccc1 study_target="Plasmodium falciparum Sir2 (PF13_0152, Sir2A)" reading=1.03
compound=CC(=O)NCCCC[C@@H]1NC(=O)[C@@H]2C[C@H](C(=O)NCCCCN(C)C)[C@H](c3ccc(O)cc3)N2C1=O study_target="Plasmodium falciparum Sir2 (PF13_0152, Sir2A)" reading=-0.165
compound="CC(C)(C)N1CC=CC23O[C@@H]4/C=C\\CCCOC(=O)C4[C@H]2C(=O)N(CCO)[C@@H]3C1=O (some centres undefined)" study_target="Plasmodium falciparum Sir2 (PF13_0152, Sir2A)" reading=1.59
